Source listed as the supplement of paper PMC7125110.

B1: glmS ribozyme (parent)
chain: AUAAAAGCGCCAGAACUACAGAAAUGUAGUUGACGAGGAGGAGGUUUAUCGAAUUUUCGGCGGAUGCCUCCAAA

# Variants of: B1
# assay_notes: self-cleavage kobs at 640 uM GlcN6P; higher = faster cleavage; RNA array
# applied_conditions: with glucosamine-6-phosphate
Variants at the floor of the assay were thinned out.
measurement_type: self-cleavage kobs at 640 uM GlcN6P

Some solved cases for reference:
>>> measured_result("G32U G35A U55G C68A")
"< 1e-05 s⁻¹"
>>> measured_result("A6U G35U A42C")
"< 1e-05 s⁻¹"
>>> measured_result("A14G A52U G60A")
"< 1e-05 s⁻¹"
>>> measured_result("A52G G60U")
"< 1e-05 s⁻¹"
>>> measured_result("A36C G44A")
"< 1e-05 s⁻¹"
>>> measured_result("G13A A48U U54C")
"< 1e-05 s⁻¹"

Next variant, self-cleavage kobs at 640 uM GlcN6P to be filled in.
input: What value of self-cleavage kobs at 640 uM GlcN6P has been reported for the following variant? G7A G43A U55A G60U C67U C70G
output: < 1e-05 s⁻¹
